Test system: Chordin-like protein 2 (CHRDL2)
Test: CHRDL2 small-molecule binders, primary screen, biochemical, small-molecule microarray, 635 nm fluorescence (AID 1126);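 also: printed compound slides probed with Chrdl2 protein at 4 µg/mL for 1 h at 4 C; score merges 667 nm emission intensity with signal to noise over three replicate slides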
Conditions: small-molecule microarray binding, fluorescence 635 nm; higher = more signal
The label depends only on composite z-score: TRUE if it is at least 0.5, FALSE if it is smaller.

Has C=C(CCCC)C(=O)CC[C@H](OC(=O)c1cccnc1)c1cccc(OCCO)c1 a recorded composite z-score greater than or equal to 0.5?
FALSE

Is composite z-score at least 0.5? Consider CC(C)NC(=O)[C@@]1(Cc2ccccc2I)c2ccccc2C(=O)N(Cc2ccccc2)[C@H]1c1ccc(CO)cc1
FALSE

Threshold query (composite z-score >= 0.5) on N#Cc1ccc(NN2C(C(O)C3CCCCC3)C=CC3C(=O)N(c4ccccc4)C(=O)C32)cc1 (stereo not given)
FALSE

Is composite z-score for COCCOC(=O)N1C(=O)[C@@]2(c3ccccc31)[C@H](C(=O)Nc1nc3ccccc3s1)[C@H]1C(=O)O[C@H](c3ccccc3)[C@H](c3ccccc3)N1[C@@H]2c1ccc(OCCO)cc1 at or above 0.5?
TRUE

Is reported composite z-score greater than or equal to 0.5 here: O=C1C2C=CC(C(O)c3ccc(-c4ccccc4)s3)N(n3cnnc3)C2C(=O)N1Cc1ccccc1 (stereo not given)
FALSE

---
Record COCCOC(=O)N1C(=O)[C@@]2(c3ccccc31)[C@H](c1ccc(O)cc1)N1[C@H](c3ccccc3)[C@H](c3ccccc3)OC(=O)[C@H]1[C@@H]2C(=O)N1CCc2cc(OC)c(OC)cc2C1 ; criterion: composite z-score no lower than 0.5. Met?
TRUE

Decide: composite z-score of C=CCNC(=O)[C@@H]1[C@H]2C(=O)O[C@H](c3ccccc3)[C@H](c3ccccc3)N2[C@H](c2ccc(O)cc2)[C@@]12C(=O)N(C(=O)OCCOC)c1ccccc12 >= 0.5?
FALSE

For this compound, is measured composite z-score 0.5 or higher? Cc1cc(C)cc(N2C(=O)CS(=O)(=O)C2c2cccc([N+](=O)[O-])c2)c1 (stereo not given)
FALSE

Does the compound CCOC(=O)C1=C[C@@H](C(C)C)N(S(=O)(=O)c2ccc(C)cc2)[C@H]1c1ccc(C(C)C)cc1 have recorded composite z-score that is 0.5 or more?
FALSE

Decide: composite z-score of CC(=O)NCCCC[C@@H]1NC(=O)[C@@H]2C[C@H](C(=O)NCCCCN(C)C)[C@H](c3ccc(O)cc3)N2C1=O >= 0.5?
FALSE
